# Tested on: MALME-3M melanoma
# Test: NCI tumour cell line growth inhibition, 48 h
Measure: TGI (µM)
Numbers only, in µM.

>  <Compound>
COC(=O)c1c(-c2cccs2)oc(-c2cccs2)c1C(=O)OC

>  <Unit Info>
µM

>  <Number>
64

$$$$

Please state TGI for every compound in the list that follows.
1. NC1c2ccccc2Nc2ccccc21
2. O=C1CSC(c2ccccc2Cl)N1c1nnc(Cn2cnnc2)o1 (stereo unspecified)
3. C=C1C(C)C2C(Cc3ccccc3)NC(=O)C23OC(=O)/C=C\CC(=O)CCC(C)C/C=C/C3C1O (stereo unspecified)
4. Cc1cc(S(=O)(=O)/N=C(/NN)Nc2ccc(Cl)cc2)c(S)cc1Cl

Return:
19
30.6
5.18
37.1

----------
# Test system: CCRF-CEM leukemia
# Test: NCI tumour cell line growth inhibition, 48 h; in the data active = GI50 below about 0.43 µM; inactive = the rest
API: response.call in YES for active, NO for inactive

>  <Compound>
CCC[CH2][Sn]([CH2]CCC)([S]C#N)[S]C#N

>  <Answer Label>
YES

$$$$

Enquiry: What was the test verdict on C=C1C(O)C2CC(C)(CO)C(=O)C2=C(CC(C)C)C12CC2 (stereo not given) ?
Return: NO

Enquiry: What was the test verdict on `NC(=O)c1ccc(Oc2nccc(-c3c(-c4ccc(F)cc4)ncn3C3CCNCC3)n2)cc1` ?
Return: NO

Enquiry: What was the test verdict on `CC/C(Cc1ccccc1)=C(\c1ccc(OCCN2CCCC2)cc1)c1ccc(OC(=O)NCc2ccccc2)cc1` ?
Return: NO

Enquiry: What was the test verdict on `CN(C)CCCn1c(=O)c2ccccc2c2cnc3[nH]ccc3c21` ?
Return: NO

----------
# System: UACC-62 melanoma
# Test: NCI tumour cell line growth inhibition, 48 h
So I've got a bunch of compounds here, and I need their TGI values.
Numbers only, in µM.

Solved entries (count: 3):
>  <Compound>
CC1CCC2(OC1)OC1C(O)C3C4CCC5CC(OC6OC(CO)C(OC7OC(CO)C(O)C(OC8OCC(O)C(O)C8O)C7OC7OC(CO)C(O)C(OC8OC(CO)C(O)C(O)C8O)C7O)C(O)C6O)C(O)CC5(C)C4CCC3(C)C1C2C (stereo not drawn)

>  <System Under Test>
UACC-62 melanoma

>  <Measure>
TGI

>  <Number>
14.1

$$$$
>  <Compound>
O=c1[nH]nc(Cc2ccc(Cl)cc2)n1/N=C/c1ccc([N+](=O)[O-])o1

>  <System Under Test>
UACC-62 melanoma

>  <Measure>
TGI

>  <Number>
9.09

$$$$
>  <Compound>
COc1nc(C#CC2CCCCC2)nc(OC)n1

>  <System Under Test>
UACC-62 melanoma

>  <Measure>
TGI

>  <Number>
4.38

$$$$

Enquiry: Output reported TGI of the compound CCCCCC(O)C(O)CCC[C@H](O)[C@H]1CC[C@H]([C@H]2CC[C@H]([C@H](O)CCCCCCCCCCCCC3=C[C@H](C)OC3=O)O2)O1 (stereo partly drawn) on UACC-62 melanoma.
Return: 7.54

----------
# System: SK-OV-3 ovarian
# Test: NCI tumour cell line growth inhibition, 48 h; in the data active = GI50 below about 0.43 µM; inactive = the rest
API: response.call in active, inactive

>  <Molecule>
COc1ccc(-c2cncn2-c2cc(OC)c(OC)c(OC)c2)cc1

>  <System Under Test>
SK-OV-3 ovarian

>  <Answer Label>
active

$$$$
>  <Molecule>
C=C1C(O)C2CC(C)(CO)C(=O)C2=C(CC(C)C)C12CC2 (centres undefined)

>  <System Under Test>
SK-OV-3 ovarian

>  <Answer Label>
inactive

$$$$
>  <Molecule>
ClCc1ccccc1Cn1cnc2ncnc(Cl)c21

>  <System Under Test>
SK-OV-3 ovarian

>  <Answer Label>
inactive

$$$$
>  <Molecule>
COc1ccccc1S(=O)(=O)Nc1ccc2c3c(cc(CCC(=O)NCCCCNc4cccc5c4C(=O)N(C4CCC(=O)NC4=O)C5=O)cc13)C(=O)N2C (centres undefined)

>  <System Under Test>
SK-OV-3 ovarian

>  <Answer Label>
inactive

$$$$
>  <Molecule>
O=C(CN(/C=C/C(=O)C(F)(F)F)c1ccc(Cl)cc1)c1ccc(Cl)c(Cl)c1

>  <System Under Test>
SK-OV-3 ovarian

>  <Answer Label>
inactive

$$$$
>  <Molecule>
COc1cc(C2C3=C(COC3=O)N(CCO)c3cc4c(cc32)OCCO4)cc(OC)c1OC (centres undefined)

>  <System Under Test>
SK-OV-3 ovarian

>  <Answer Label>
active

$$$$

Enquiry: What was the test verdict on `O=C(NCCCc1cn[nH]c1)c1ccc(-c2ccncc2)c(C#Cc2ccc(F)cc2)c1` ?
Return: inactive

Enquiry: What was the test verdict on `O=C(NCC(F)(F)F)Nc1cccc(-c2cnc3cc(-c4ccc(F)cc4)ccn23)c1` ?
Return: inactive

Enquiry: What was the test verdict on `Clc1ccc(-c2c3ccc(=[N+]4CCCCC4)cc-3oc3cc(N4CCCCC4)ccc23)cc1` ?
Return: active

----------
# System: SK-MEL-2 melanoma
# Test: NCI tumour cell line growth inhibition, 48 h
So I've got a bunch of compounds here, and I need their TGI values.

Solved entries (count: 3):
>  <Chem Smiles>
CC1=C(SC#N)S(=O)(=O)N(c2ccccc2)C(C)=C1SC#N

>  <Result>
> 100 µM

$$$$
>  <Chem Smiles>
CCNc1cc2c3c(c1)CCN3CCC2

>  <Result>
> 10 µM

$$$$
>  <Chem Smiles>
OC(NN=C1CCCC1)(C(F)(F)Cl)C(F)(F)Cl

>  <Result>
> 10 µM

$$$$

Please state TGI for every compound in the list that follows.
1. COc1ccccc1NC(=O)C1=C(C)NC(C)=C(C(=O)Nc2ccccc2OC)C1/C=C/c1ccccc1
2. NC(=O)c1ccc(Oc2nccc(-c3c(-c4ccc(F)cc4)ncn3C3CCNCC3)n2)cc1
3. CCCOC(=O)c1c(C)n(C)c2scc[n+]12
4. O=C1NC(N2CCOCC2)=N/C1=C\c1ccc(O)cc1

Return:
> 100 µM
> 25 µM
> 100 µM
> 100 µM

----------
So I've got a bunch of compounds here, and I need their TGI values.
# Test system: HOP-18 NSCLC
# Test: NCI tumour cell line growth inhibition, 48 h

Solved entries (count: 5):
>  <Compound>
Cc1ccc(NC(=O)C(=O)CC(=O)c2c(C)n([O-])c3ccccc3[n+]2=O)cc1C

>  <TGI>
> 100 µM

$$$$
>  <Compound>
N#CC(C(=O)CCCC(=O)Nc1ccc(Cl)cc1Cl)c1ccccc1 (stereo unspecified)

>  <TGI>
> 100 µM

$$$$
>  <Compound>
CCOC(=O)C1=C(O)c2ccc(C)cc2C(=O)C1=O

>  <TGI>
> 100 µM

$$$$
>  <Compound>
C1CCCCc2nc3c(nc2CCC1)c1nc2c(nc1c1nc4c(nc31)CCCCCCCC4)CCCCCCCC2

>  <TGI>
> 100 µM

$$$$
>  <Compound>
CC1OC(=O)C(O)=C1O (stereo unspecified)

>  <TGI>
> 100 µM

$$$$

Enquiry: Output reported TGI of the compound `Cc1c2ccncc2c(C)c2c1[nH]c1ccc(OCCN(C)C)cc12` on HOP-18 NSCLC.
Return: 2.76 µM

----------
So I've got a bunch of compounds here, and I need their TGI values.
# Tested on: DLD-1 colon
# Test: NCI tumour cell line growth inhibition, 48 h

Solved entries (count: 2):
>  <Chem Smiles>
C1CCCCc2nc3c(nc2CCC1)c1nc2c(nc1c1nc4c(nc31)CCCCCCCC4)CCCCCCCC2

>  <Measure>
TGI

>  <Result>
> 100 µM

$$$$
>  <Chem Smiles>
CCOC(=O)C1=C(O)c2ccc(C)cc2C(=O)C1=O

>  <Measure>
TGI

>  <Result>
> 100 µM

$$$$

Turning to the following compound.
Enquiry: Look up and report measured TGI for this entry: `COc1ccc(Oc2ccccc2N)cc1`
Return: > 100 µM

----------
# System: MCF7 breast
# Test: NCI tumour cell line growth inhibition, 48 h
Measure: TGI

Solved entries (count: 3):
>  <Molecule>
Clc1cc(Cl)ncn1

>  <TGI>
> 100 µM

$$$$
>  <Molecule>
N/C(=N\N=C\c1ncccc1O)NO

>  <TGI>
> 100 µM

$$$$
>  <Molecule>
CCN(CC)C(=O)Cn1c2c(c3ccccc31)CCCC2

>  <TGI>
> 100 µM

$$$$

Please state TGI for every molecule in the list that follows.
1. CC1(C)Oc2ccc3c(=O)cc(-c4ccccc4)oc3c2C1C(=O)O (stereo not given)
2. CC(=O)OCC1OC(n2c(C)c(C)c(C)c(C#N)c2=S)C(OC(C)=O)C(OC(C)=O)C1OC(C)=O (stereo not given)

Return:
1: > 100 µM; 2: > 100 µM

----------
# Test system: HCT-15 colon
# Test: NCI tumour cell line growth inhibition, 48 h
Measure: TGI

>  <Compound>
CN(C)CC1CCC(CN(C)C)C(=O)C1=O (stereo not drawn)

>  <TGI>
7.78 µM

$$$$
>  <Compound>
C[C@H](C1CC2(C)OC2(C)C(=O)O1)[C@H]1CC[C@H]2[C@@H]3[C@@H]4O[C@@H]4[C@@]4(O)CC=CC(=O)[C@]4(C)[C@H]3CC[C@]12C (stereo partly drawn)

>  <TGI>
> 50 µM

$$$$

Please state TGI for every compound in the list that follows.
1. COC(=O)c1c(-c2cccs2)oc(-c2cccs2)c1C(=O)OC
2. COc1cc(OC)cc(C2C3=C(COC3=O)Nc3cc(OC)ccc32)c1 (stereo not drawn)

Return:
1. > 100 µM
2. > 42.6 µM

The origin of these recorded values is PubChem BioAssay (NCI).
